Where do the numbers come from? From patent US6300501A.

Tested on: ras farnesylation in ras-transformed cells
METHOD_SUMMARY: Gel shift assay
Assay type: cell-based
CONDITION_INFO: ras-transformed cells, 18-hour incubation; read-out: Gel Shift (μM) MED (minimal effective dose to observe inhibition of ras farnesylation)
List of minimal effective concentration values.

Consider the following illustrative entries.
COMPOUND: CC(CNC(=O)CN(Cc1cccc2ccccc12)C(=O)[C@H](Cc1c[nH]cn1)NC(=O)OCc1ccccc1)c1ccccc1 (stereo partly drawn)
SYSTEM_NAME: ras farnesylation in ras-transformed cells
minimal effective concentration: ≥ 0.2 µM
--
COMPOUND: CC(C)(CNC(=O)CN(Cc1ccc(OCc2ccccc2)cc1)C(=O)[C@H](Cc1cnc[nH]1)NC(=O)OCc1ccccc1)c1ccccc1
SYSTEM_NAME: ras farnesylation in ras-transformed cells
minimal effective concentration: 0.01 to 0.05 µM

# input for lookup
Lab book: minimal effective concentration of CCC(CNC(=O)CN(Cc1ccc(OCc2ccccc2)cc1)C(=O)[C@H](Cc1c[nH]cn1)NC(=O)OCc1ccccc1)c1ccccc1 (stereo partly drawn) noted as 0.01 to 0.05 µM
